# experiment.notes: Serum stability assay in human serum (LC/MS)
# condition.summary: human
Numbered stars: 1 amine (or outer) side, 2 acyl side, 3 side chain; on linkers, the order of the positions; unused ones are H or OH. Bridge positions count the residues as written; N and C are the ends. Square brackets hold non-standard residues; d marks the D form. Peptide text beside a SMILES is read from it. Acbc(cis-1,3) = O=C([C@H]1C[C@@H](N[*:1])C1)[*:2]; X1 = O=C([C@@H]1CC[C@H](N[*:1])C1)[*:2]
Reported half-life at 10 μM values for the following molecules.
Report the value in h with no unit label.

molecule	half-life at 10 μM (h)
CC(C)C[C@@H]1NC(=O)[C@@H](Cc2ccc(O)cc2)NC(=O)CSC[C@H](C(N)=O)NC(=O)[C@H](C)NC(=O)[C@H](C)NC(=O)[C@H](Cc2ccc(O)cc2)NC(=O)[C@H](CCCNC(=N)N)NC(=O)[C@H](Cc2ccc(O)cc2)NC(=O)[C@@H]2CC[C@@H](C2)NC(=O)[C@H](CO)NC(=O)[C@H](Cc2ccc(O)cc2)NC(=O)[C@H]([C@@H](C)O)NC(=O)[C@H](CO)NC(=O)[C@H](C)NC(=O)[C@H](Cc2ccc(O)cc2)NC(=O)[C@H](Cc2c[nH]cn2)NC1=O [GM3] ({CH2CO}-[dY]LHYASTYS[X1]YRYAA[dC]-NH2; thioether N-16)	2.5
CC(C)C[C@@H]1NC(=O)[C@H]([C@@H](C)O)NC(=O)[C@H](Cc2ccc(O)cc2)NC(=O)[C@H]([C@@H](C)O)NC(=O)[C@H](Cc2c[nH]cn2)NC(=O)[C@@H]2CCCN2C(=O)[C@@H]2CCCN2C(=O)[C@H](Cc2ccccc2)NC(=O)[C@H]2C[C@H](C2)NC(=O)[C@H](Cc2c[nH]cn2)NC(=O)[C@H](Cc2ccccc2)NC(=O)[C@@H](Cc2ccc(O)cc2)NC(=O)CSC[C@H](C(N)=O)NC1=O [GM1] ({CH2CO}-[dY]FH[Acbc(cis-1,3)]FPPHTYTL[dC]-NH2; thioether N-13)	90
CC(C)C[C@@H]1NC(=O)[C@@H](Cc2ccc(O)cc2)NC(=O)CSC[C@H](C(N)=O)NC(=O)[C@H](C)NC(=O)[C@H](C)NC(=O)[C@H](Cc2ccc(O)cc2)NC(=O)[C@H](CCCNC(=N)N)NC(=O)[C@H](Cc2ccc(O)cc2)NC(=O)[C@H](C)NC(=O)[C@H](CO)NC(=O)[C@H](Cc2ccc(O)cc2)NC(=O)[C@H]([C@@H](C)O)NC(=O)[C@H](CO)NC(=O)[C@H](C)NC(=O)[C@H](Cc2ccc(O)cc2)NC(=O)[C@H](Cc2c[nH]cn2)NC1=O [GM3γ^210A] ({CH2CO}-[dY]LHYASTYSAYRYAA[dC]-NH2; thioether N-16)	0.59

For the next question, use this molecule.
For the molecule shown here, CC(C)C[C@@H]1NC(=O)[C@H](CC(N)=O)NC(=O)[C@H](CC(C)C)NC(=O)[C@H]2C[C@H](C2)NC(=O)[C@H](Cc2c[nH]cn2)NC(=O)[C@H](Cc2ccccc2)NC(=O)[C@@H](Cc2ccc(O)cc2)NC(=O)CSC[C@H](C(N)=O)NC(=O)CNC(=O)[C@@H]2CCCN2C(=O)[C@H](CCCNC(=N)N)NC(=O)[C@H](Cc2ccc(O)cc2)NC(=O)CNC1=O [GM4] ({CH2CO}-[dY]FH[Acbc(cis-1,3)]LNLGYRPG[dC]-NH2; thioether N-13) , give the reported half-life at 10 μM.
126
